Provenance of the data: patent US8906909B2

- Tested on: H2122 cells
- methodDescription: Cell proliferation assay Method B, H2122
- Type: cell-based
- conditionLabel: Homo sapiens, NCI-H2122, NSCLC, 72 hours, read-out: antiproliferative activity IC50, H2122
pIC50: −log10 of the molar value.
propertyName: pIC50

Record CS(=O)(=O)N1CCN(Cc2cc3nc(-c4cccc5[nH]ncc45)nc(N4CCOCC4)c3s2)CC1 [GDC-0941, reference compound] , field pIC50: 5.00 to 6.00

---

- System: Pfeiffer cells
- methodDescription: Cell proliferation assay Method B, Pfeiffer
- Type: cell-based
- conditionLabel: Homo sapiens, NHL, 72 hours, read-out: antiproliferative activity IC50, Pfeiffer
pIC50: −log10 of the molar value.
Task for the reader: assign each of the following molecules its reported pIC50.

Required: pIC50, one value per molecule below.
1. CS(=O)(=O)N1CCN(Cc2cc3nc(-c4cccc5[nH]ncc45)nc(N4CCOCC4)c3s2)CC1 [GDC-0941, reference compound]
2. CNc1ccc(-c2nc(N3CCOCC3)c3sc(CN(C)c4ncc(C(=O)NO)cn4)cc3n2)cn1 [Compound 111]

["6.00 to 7.00", "> 8.00"]

Value sought for every listed molecule: pIC50.
1. CN(Cc1cc2nc(-c3ccc(N)cc3)nc(N3CCOCC3)c2s1)c1ncc(C(=O)NO)cn1 [Compound 150]
2. COc1ccc(-c2nc(N3CCOCC3)c3sc(CN(C)c4ncc(C(=O)NO)cn4)cc3n2)cn1 [Compound 236]

["> 8.00", "> 8.00"]

---

propertyName: melting point

> print(dat)
                                   molecule  measuredresult
1  CN(Cc1cc2nc(-c3ccc(O)cc3)nc(N3CCOCC3)c2s1)c1ncc(C(=O)NO)cn1   185 to 195 °C

Parameter requested: melting point. Apply to each item below.
1. CNc1ccc(-c2nc(N3CCOCC3)c3sc(C(C)N(C)c4ncc(C(=O)NO)cn4)cc3n2)cn1 (centres unmarked)
2. CS(=O)(=O)N1CCN(Cc2cc3nc(-c4ccc(OCCCCC(=O)NO)cc4)nc(N4CCOCC4)c3s2)CC1
3. COc1ncc(-c2nc(N3CCOCC3)c3sc(C(C)(C)Nc4ncc(C(=O)NO)cn4)cc3n2)cn1
4. CN(Cc1cc2nc(-c3ccc4[nH]c(=O)[nH]c4c3)nc(N3CCOCC3)c2s1)c1ncc(C(=O)NO)cn1
5. CN(C)c1cccc(-c2nc(N3CCOCC3)c3sc(CN(C)c4ncc(C(=O)NO)cn4)cc3n2)c1
6. CCN(CC)c1ccc(-c2nc(N3CCOCC3)c3sc(CN(C)c4ncc(C(=O)NO)cn4)cc3n2)cc1
7. CN(C)c1ncc(-c2nc(N3CCOCC3)c3sc(CN(C)c4ncc(C(=O)NO)cn4)cc3n2)cn1
8. CN(Cc1cc2nc(-c3cc(F)c(N)c(F)c3)nc(N3CCOCC3)c2s1)c1ncc(C(=O)NO)cn1

1. 270 to 275 °C
2. 140 to 144 °C
3. 202 to 207 °C
4. 272 to 275 °C
5. 172 to 175 °C
6. 192 to 196 °C
7. 200 to 206 °C
8. 190 to 193 °C

---

- System: MV-4-11 cells
- methodDescription: Cell proliferation assay Method B, MV-4-11
- Format: cell-based
- conditionLabel: Homo sapiens, MV4-11, AML, 72 hours, read-out: antiproliferative activity IC50, MV-4-11
propertyName: IC50

> print(dat)
                                   molecule    measuredresult
1  CN(Cc1cc2nc(-c3ccc(N)cc3)nc(N3CCOCC3)c2s1)c1ncc(C(=O)NO)cn1 [Compound 150]           < 10 nM
2  CS(=O)(=O)N1CCN(Cc2cc3nc(-c4cccc5[nH]ncc45)nc(N4CCOCC4)c3s2)CC1 [GDC-0941, reference compound]  1000 to 10000 nM
3  CNc1ccc(-c2nc(N3CCOCC3)c3sc(CN(C)c4ncc(C(=O)NO)cn4)cc3n2)cn1 [Compound 111]           < 10 nM

Proceed to the following item.
GET /value?item= COc1ccc(-c2nc(N3CCOCC3)c3sc(CN(C)c4ncc(C(=O)NO)cn4)cc3n2)cn1 [Compound 236] &field=IC50 returns < 10 nM
